# Tested on: MCF7
# Test summary: NCI tumour cell line growth inhibition, 48 h
The source made the active and inactive calls. Cut-off read from the data, not from the text of the source: active = GI50 up to about 1.1 µM and inactive = higher.
GI50 values, listed per item

Some compounds with known GI50 results, for comparison:
Field request: GI50 | item: CCOC(=O)c1sc2c(c1O)c(=O)n(-c1ccccc1)c(=S)n2-c1ccccc1
67.6 µM (inactive)

Field request: GI50 | item: CN(C)/C=C/c1ccnc2c1C(=O)c1ccccc1C2=O
4.46 µM (inactive)

Field request: GI50 | item: N/C(=N\O)N/N=C/c1cc2c(cc1Cl)OCO2
22.3 µM (inactive)

Field request: GI50 | item: N=C(CC(=O)NOC(=O)c1ccccc1)NOC(=O)c1ccccc1
25.8 µM (inactive)

Field request: GI50 | item: CCNC(=S)N/N=C/c1ccccn1
3.27 µM (inactive)

---
Field request: GI50 | item: CC(C)N(C(=O)C1(O)c2ccccc2C=Cc2ccccc21)C(C)C
17.3 µM (inactive)

Field request: GI50 | item: COC(=O)C1c2cc3c(c(O)c2C(O)CC1(C)O)C(=O)c1c(O)cc2c(c1C3=O)OC1OC2(C)C(O)C(N(C)C)C1O (stereo not drawn)
1.35 µM (inactive)

Field request: GI50 | item: Nc1nc(-c2ccc3ccccc3c2)cc(-c2cc(-c3ccc4ccccc4c3)nc(N)n2)n1
> 100 µM (inactive)

---

# Tested on: HCT-116
# Test summary: NCI tumour cell line growth inhibition, 48 h
Active and inactive are the calls of the source. Rule as the data show it: active = GI50 up to about 1.1 µM and inactive = higher.
Respond using exactly one of the listed classes: active, inactive

Worked set:
Which outcome did this test record for the compound COC(=O)C1=CO[C@@H](OC2OC(CO)C(O)C(O)C2O)[C@@H]2[C@H](C)[C@@H](O)[C@@H](O)[C@]12O (stereo not given in full) ?
inactive

Which outcome did this test record for the compound CC1(C)O/C(=C\c2ccccc2)C(=O)/C(=C/c2ccccc2)O1 ?
inactive

Which outcome did this test record for the compound O=C(O)C12C3CCC(C3)C1(C(=O)O)C1CCC2C1 (stereo not given) ?
inactive

Which outcome did this test record for the compound c1ccc(/N=C(\N2CCCCC2)N(CCN2CCCCC2)c2ccccc2)cc1 ?
active

Which outcome did this test record for the compound COC(=O)C(C(=O)C(=O)Nc1nc2ccc([N+](=O)[O-])cc2s1)c1nc2ccc(Cl)cc2nc1O (stereo not given) ?
inactive

Which outcome did this test record for the compound C[N+](C)(C)c1ncnc2c1ncn2C1CC(O)C(CO)O1 (stereo not given) ?
inactive

---
Which outcome did this test record for the compound Cc1oc2c(Cl)cc(O)c(Cl)c2c2cccc1-2 ?
inactive

Which outcome did this test record for the compound Cc1c[nH]c(C(=O)O)c1-c1cccn1-c1ccc(Cl)cc1[N+](=O)[O-] ?
inactive

Which outcome did this test record for the compound COc1ccc(C2CC(c3c(O)ccc4ccccc34)=NN2c2ccc([N+](=O)[O-])cc2[N+](=O)[O-])cc1OC (stereo not given) ?
inactive

Which outcome did this test record for the compound Clc1ccc(/N=C/c2cc3cc(Br)ccc3nc2Cl)cc1 ?
inactive

---

# Test system: HOP-62
# Test summary: NCI tumour cell line growth inhibition, 48 h
Calls of active or inactive are those of the source. Cut-off read from the data, not from the text of the source: active = GI50 up to about 1.1 µM and inactive = higher.
Respond using exactly one of the listed classes: class 1 (active), class 0 (inactive)

Worked set:
Which outcome did this test record for the molecule COc1cc2c(cc1OC)C(=O)N(NC1=NCCN1)C2=O ?
class 0

Which outcome did this test record for the molecule CCN(CC)CCn1nc2c3c(c(NCCN)ccc31)Sc1cc(O)ccc1-2 ?
class 1

Which outcome did this test record for the molecule CC(C)(C)c1cc(C(=O)Nc2cc(Br)c(Br)cc2S(N)(=O)=O)cc(C(C)(C)C)c1O ?
class 0

Which outcome did this test record for the molecule COc1cccc(/C=C2/S/C(=N/Nc3nc(C)c(C(C)=O)s3)NC2=O)c1O ?
class 0

---
Which outcome did this test record for the molecule N/C(=N\c1ccccc1Cl)c1ccccc1N ?
class 0

Which outcome did this test record for the molecule Nc1ccc2cc(S(=O)(=O)O)cc(O)c2c1/N=N/c1ccc(NC(=O)Nc2ccc(/N=N/c3c(N)ccc4cc(S(=O)(=O)O)cc(O)c34)c(S(=O)(=O)O)c2)cc1S(=O)(=O)O ?
class 0

Which outcome did this test record for the molecule O=C1c2ccccc2C(=O)c2c(NC3CCCCC3)ccc(Nc3ccc(S(=O)(=O)O)cc3)c21 ?
class 0

Which outcome did this test record for the molecule N=C(CC(=O)NOC(=O)c1ccccc1)NOC(=O)c1ccccc1 ?
class 0

Which outcome did this test record for the molecule N#CCCN(CCCCN(CCC#N)C(=O)Nc1ccccc1)C(=O)Nc1ccccc1 ?
class 0

Which outcome did this test record for the molecule N#C/C(=C\c1ccc2ccccc2c1)c1ccccc1 ?
class 0

Reference for the values: ChEMBL document CHEMBL1201862
